# System: B/Wisconsin/1/2010 (Yamagata)
# Test Details: Plaque reduction assay in ST6Gal I-overexpressing MDCK cells
# Type: cell-based, influenza B virus
# Test Conditions: Influenza B virus, MDCK
Readout: EC50 (nM)
Write the value in nM as a bare number.

Exercise: I am curious: what EC50 value has been reported for Cc1cc(OCc2nnc(SC3CCCC3)n2-c2cccnc2)ccc1-c1ccc(S(C)(=O)=O)cc1 ?
Key: 35
